Would you mind telling me the reported inhibition of each entry?
experiment: 384-well plate pilot, post-Golgi transport modulator project, inhibition of yeast transport mutant growth (AID 636); settings: absorbance 615 nm, about 18 h, stronger effect = higher value; also: test concentration not given here
One number for each entry, in %.

molecule: O=C(OCc1cc2ccccc2[nH]c1=O)c1ccncc1
display_unit: %
inhibition: -4.34

Batch lookup, inhibition per entry.
1. Cc1ccnc(NC(=O)CCC(=O)N(CC(=O)NC2CCCCC2)c2cccc(C)c2C)c1
2. O=C(Cn1nnc2ccccc2c1=O)NC1CCCc2ccccc21 (configuration not stated)
3. COc1cccc2cc(C(=O)C3=C(O)C(=O)N(CCCN4CCOCC4)C3c3ccncc3)oc12 (configuration not stated)
4. CN(C)c1nc(Nc2ccc(Cl)cc2)nc(OCC#N)n1
5. O=C(c1ccccc1)c1ccc(N2CCOCC2)c(NC(=O)c2ccco2)c1

1: 0; 2: -2.67; 3: -5.19; 4: -0.26; 5: -3.16

Batch lookup, inhibition per entry.
1. Cc1ccc(S(=O)(=O)N(C)Cc2cc3ccccc3[nH]c2=O)cc1
2. COc1cc2c(cc1OC)C(c1cc(OC)c(OC)c(OC)c1)NCC2 (configuration not stated)
3. O=C(CCC(=O)N1CCc2ccccc2C1)N1CCN(S(=O)(=O)c2ccccc2)CC1
4. Cc1cccc(N2CCN(C(=O)CCn3c(=S)[nH]c4cc5c(cc4c3=O)OCO5)CC2C)c1 (configuration not stated)
5. CCOc1cc2[nH]c(=O)n(CCCCC(=O)N3CCCCCC3)c(=O)c2cc1OCC
6. CCCN1C2CCCC1CC(NC(=O)c1ccccc1F)C2 (configuration not stated)
7. CCN(CCCNC(=O)c1cn(CC)c2ccc(S(=O)(=O)N(C)C)cc2c1=O)c1cccc(C)c1

[0.26, -3.95, 4.81, -1.3, -3.29, -4.93, -2.8]

Where these numbers come from: PubChem BioAssay
